EC50 (log10 M) overview
Tested on: HGGX6 (H3.3 G34R paediatric high-grade glioma line)
Assay: EC50 (inflection of fitted growth-inhibition curve) (log10 M)
property: EC50 (log10 M)

> print(dat)
                                   molecule  system.tested  value.measured
1  Cc1cccc(CN2CCN(C(c3ccccc3)c3ccc(Cl)cc3)CC2)c1 (centres undefined) [MECLIZINE]          HGGX6           -4.86
2  CC[C@H](C)C(=O)O[C@H]1C[C@@H](C)C=C2C=C[C@H](C)[C@H](CC[C@@H]3C[C@@H](O)CC(=O)O3)[C@H]21 [LOVASTATIN]          HGGX6           -5.49
3  CN1CCCN(C(=O)c2cccc(-c3ccc(/C=C4/C(=O)Nc5ccc(Cl)cc54)o3)c2)CC1 [CX-6258]          HGGX6           -5.24
4  C[C@@H](O[C@H]1OCCN(Cc2nn(P(=O)(O)O)c(=O)[nH]2)[C@H]1c1ccc(F)cc1)c1cc(C(F)(F)F)cc(C(F)(F)F)c1 [FOSAPREPITANT]          HGGX6           -4.84

----------
System: DIPGX29 (H3.3 K27M diffuse intrinsic pontine glioma line)
Experiment: area under dose-response curve of % growth inhibition (log2 RLU vs DMSO / staurosporine), 1e-11 to 1e-4 M (% x log10 M); higher = more growth inhibition
Reported area under dose-response curve values for a set of compounds
property: area under dose-response curve

compound	system-tested	value-measured
COc1cccc2c1C(=O)c1c(O)c3c(c(O)c1C2=O)C[C@@](O)(C(C)=O)C[C@@H]3O[C@H]1C[C@H](N)[C@H](O)[C@H](C)O1	DIPGX29	141
COc1cc2nccc(Oc3ccc(NC(=O)C4(C(=O)Nc5ccc(F)cc5)CC4)cc3)c2cc1OC [CABOZANTINIB]	DIPGX29	10.6
Cc1ccc2nc(NCCN)c3ncc(C)n3c2c1	DIPGX29	94.6
C/C=C(\C)C(=O)N[C@@H](c1ccccc1)[C@@H](O)C(=O)O[C@H]1C[C@@]2(O)[C@@H](OC(=O)c3ccccc3)[C@@H]3[C@]4(OC(C)=O)CO[C@@H]4C[C@H](O)[C@@]3(C)C(=O)[C@H](OC(C)=O)C(=C1C)C2(C)C	DIPGX29	46.7
CCC(=O)N1CCOc2c(cc(-c3ccc(OC)c(OC)c3)cc2OC[C@H]2CCCN(C)C2)C1	DIPGX29	14.1
CC(C)C[C@H](NC(=O)[C@H](Cc1ccccc1)NC(=O)c1cnccn1)B(O)O	DIPGX29	287
Clc1ccc(COC(Cn2ccnc2)c2ccc(Cl)cc2Cl)c(Cl)c1 (centres undefined)	DIPGX29	46.5
COc1cc(NC(C)CCCN)c2ncccc2c1 (centres undefined)	DIPGX29	131
Cn1cnc2c(F)c(Nc3ccc(Br)cc3Cl)c(C(=O)NOCCO)cc21	DIPGX29	52.5

----------
System: DIPGX37 (H3.3 K27M diffuse intrinsic pontine glioma line)
Experiment: maximal growth inhibition (yFin) relative to DMSO / staurosporine; higher = more efficacious
Note that class boundaries on maximal growth inhibition are low: < 60%; moderate: ≥ 60% and < 90%; high: ≥ 90%

molecule	cat
COc1ccc(C[C@H](NC(=O)[C@H](C)NC(=O)CN2CCOCC2)C(=O)N[C@@H](Cc2ccccc2)C(=O)C2(C)CO2)cc1 (stereo in doubt) [ONX-0914]	high
COc1cc2c(cc1-c1c(C)noc1C)ncc1[nH]c(=O)n([C@H](C)c3ccccn3)c12 [I-BET151]	low
COc1ncc(-c2ccc3nccc(-c4ccnnc4)c3c2)cc1NS(=O)(=O)c1ccc(F)cc1F [OMIPALISIB]	high
c1ccc2c(-c3cnn4cc(-c5ccc(N6CCNCC6)cc5)cnc34)ccnc2c1	high
Cc1ccc2nc(NCCN)c3ncc(C)n3c2c1	moderate
CN(C)C/C=C/C(=O)Nc1ccc(C(=O)Nc2cccc(Nc3ncc(Cl)c(-c4c[nH]c5ccccc45)n3)c2)cc1 [THZ1]	moderate
O=C(c1ccccc1)c1ccc2nc(NC(=O)c3csc(C4CCN(c5ncnc6ccsc56)CC4)n3)[nH]c2c1	low
CC1=C(C(=O)OC(C)C)C(c2cccc([N+](=O)[O-])c2)C(C(=O)OC2CN(C(c3ccccc3)c3ccccc3)C2)=C(N)N1 (stereo unspecified) [AZELNIDIPINE]	moderate
CC(C)c1cc(-c2n[nH]c(=O)n2-c2ccc3c(ccn3C)c2)c(O)cc1O [GANETESPIB]	moderate
CN(C)c1ccc2nc3ccc(=[N+](C)C)cc-3sc2c1 [METHYLENE BLUE]	low
CCC(C)n1ncn(-c2ccc(N3CCN(c4ccc(OCC5COC(Cn6cncn6)(c6ccc(Cl)cc6Cl)O5)cc4)CC3)cc2)c1=O (stereo unspecified) [ITRACONAZOLE]	moderate
CC(=O)c1cc([N+](=O)[O-])c(Sc2ccc(F)cc2F)s1	high
O=C(Nc1ccccc1-c1cn2c(CN3CCNCC3)csc2n1)c1cnc2ccccc2n1 [SRT1720]	high
CCCc1cc(C)[nH]c(=O)c1CNC(=O)c1cc(-c2ccc(N3CCN(C(C)C)CC3)nc2)cc2c1cnn2C(C)C [UNC1999]	moderate
CC[C@H](C)C(=O)O[C@H]1CCC=C2C=C[C@H](C)[C@H](CC[C@@H]3C[C@@H](O)CC(=O)O3)[C@H]21 [MEVASTATIN]	low
O=C(c1ccc(OCCN2CCCCC2)cc1)c1c(-c2ccc(O)cc2)sc2cc(O)ccc12 [RALOXIFENE]	moderate
C/C=C(\C)C(=O)N[C@@H](c1ccccc1)[C@@H](O)C(=O)O[C@H]1C[C@@]2(O)[C@@H](OC(=O)c3ccccc3)[C@@H]3[C@]4(OC(C)=O)CO[C@@H]4C[C@H](O)[C@@]3(C)C(=O)[C@H](OC(C)=O)C(=C1C)C2(C)C [CEPHALOMANNINE]	low
COCC1(CO)C(=O)C2CCN1CC2 (stereo unspecified) [APR-246]	high
CC/C(=C(\c1ccccc1)c1ccc(OCCN(C)C)cc1)c1ccccc1 [TAMOXIFEN]	moderate

Every entry's value here was drawn from the supplement of paper PMC8253809.
